Data origin: patent US20070059799A1

Biological target: HLA-A*1101 (human)
Assay: inhibition of 125I-labelled standard peptide binding to purified HLA
# Lookup of reported binding affinity ratio (IC50 of standard peptide / IC50 of test peptide) keyed by entry
quantity.measured: binding affinity ratio (IC50 of standard peptide / IC50 of test peptide)

>>> df
                                     binder  obs_value
0  PVGAESRGR (modifications not checked) [HBV X 20 peptide …]     0.0005
1  PLEEELPR (modifications not checked) [HBV POL 20 peptide PLEEELPR]    -0.0002
2  PLTVNEKR (modifications not checked) [HBV POL 98 peptide PLTVNEKR]    -0.0002
3  PLSYQHFRK (modifications not checked) [HBV POL 2 peptide …]     0.0031
4  NLNVSIPWTHK (modifications not checked) [HBV POL 45 peptide …]     0.0005
5  PLTVNEKRR (modifications not checked) [HBV POL 98 peptide …]     0.0005
